tested on: HOP-62 NSCLC; assay: NCI tumour cell line growth inhibition, 48 h
This listing pairs molecules with measured GI50.

- SMILES STRUCTURE: "O=C(CCl)c1ccc([N+](=O)[O-])o1"
  GI50: "7.58 µM"
- SMILES STRUCTURE: "COc1cccc(C2=C(c3cn(C)c4ccccc34)C(=O)NC2=O)c1"
  GI50: "> 22.8 µM"

--- query ---
## Task Reported GI50 for HOP-62 NSCLC, given `CN(C)CCCNC(=O)c1cc(NC(=O)CCNS(=O)(=O)c2ccc3c(c2)C(=O)c2ccccc2C3=O)cn1C` ?
## Result > 100 µM

###

This listing pairs molecules with measured TGI.
system: UACC-62 melanoma; test: NCI tumour cell line growth inhibition, 48 h
Where a SMILES comes first, the peptide text is derived from it. The star is where a group is joined. Cbz = O=C(OCc1ccccc1)*; OBn = c1ccc(CO*)cc1

Example molecules with recorded TGI:
- MOLECULE: "CC12CCC(=O)C=C1CCC1C2CCC2(C)C(C(=O)Cn3cnc4c(=S)nc[nH]c43)CCC12 (stereo unspecified)"
  REPORTED PROPERTY: "TGI"
  RESULT: "> 100 µM"
- MOLECULE: "CN(C)c1ccc2c(NCCCCCCNc3ccnc4cc(N(C)C)ccc34)ccnc2c1"
  REPORTED PROPERTY: "TGI"
  RESULT: "> 100 µM"
- MOLECULE: "NCCCNCCCNCCCN"
  REPORTED PROPERTY: "TGI"
  RESULT: "> 100 µM"
- MOLECULE: "O=S(=O)(c1ccc(NC(=S)NCc2cccnc2)cc1)N1CCCCC1"
  REPORTED PROPERTY: "TGI"
  RESULT: "> 100 µM"
- MOLECULE: "C=CCONC(=O)c1ccc(Cl)cc1"
  REPORTED PROPERTY: "TGI"
  RESULT: "> 100 µM"

--- query ---
## Task Reported TGI, molecule COC(=O)CNC(=O)C(C)NC(=O)C(CC(=O)OCc1ccccc1)NC(=O)OCc1ccccc1 (stereo not drawn) (Cbz-Asp(OBn)-Ala-Gly-OMe; configuration not given here) : ____
## Result > 100 µM

###

system: DU-145 prostate; assay: NCI tumour cell line growth inhibition, 48 h
REPORTED PROPERTY: TGI (µM)
Write the answer as a number in µM, unit excluded.

- COMPOUND: "O=C1CSC2(CC(/C=C/c3ccccc3O)=NN2c2cccc(S(=O)(=O)O)c2)N1c1nc2ccccc2s1 (stereo unspecified)"
  READOUT UNIT: "µM"
  TGI: 97.5
- COMPOUND: "Cc1nc2sc(CCl)nn2c(=O)c1Cl"
  READOUT UNIT: "µM"
  TGI: 29.7
- COMPOUND: "CCN(CC)CCOc1ccc(C(=C(C)c2ccc(Cl)cc2)c2ccc(OCCN(CC)CC)cc2)cc1"
  READOUT UNIT: "µM"
  TGI: 3.47

## Task Reported TGI, compound CCN1C(=O)N(CC)C2C1NN=c1s/c(=C3\C(=O)N(C(C)C)c4ccccc43)c(=O)n12 (stereo unspecified) : ____
## Result 3.13

## Task Reported TGI, compound `COC(=O)[C@H](Cc1ccccc1)NC(=O)NCCN(CCNC(=O)N[C@@H](Cc1ccccc1)C(=O)OC)C(=O)N[C@@H](Cc1ccccc1)C(=O)OC` : ____
## Result 41.6

## Task Reported TGI, compound COc1cc2cc(C(=O)N3CC(CCl)c4c3cc(NC(=O)C(C)(C)c3ccccc3[N+](=O)[O-])c3ccccc43)[nH]c2c(OC)c1OC (stereo unspecified) : ____
## Result 28.2

## Task Reported TGI, compound `CCCN(Cc1ccc(F)cc1)c1ccc(CO)c(Cl)c1` : ____
## Result 26.5

###

tested on: SF-268 CNS; test: NCI tumour cell line growth inhibition, 48 h
This listing pairs molecules with measured GI50.

- MOLECULE: "Nc1nc(/C=C\\c2ccc([N+](=O)[O-])o2)nc(N2CCN(c3ccccc3)CC2)n1"
  GI50: "11.7 µM"
- MOLECULE: "C=C(C)[C@@H]1CC=C(CO)CC1"
  GI50: "> 10 µM"
- MOLECULE: "CCN1C(=O)N(CC)C2C1NN=c1s/c(=C3\\C(=O)N(C(C)C)c4ccccc43)c(=O)n12 (stereo not given)"
  GI50: "0.722 µM"

## Task Reported GI50 for SF-268 CNS, given `CCOC(=O)Cc1c[nH]c(=S)[nH]c1=O` ?
## Result > 100 µM

## Task Reported GI50 for SF-268 CNS, given `NC(=O)[C@H]1CCN(c2ncnc(N)c2F)C[C@@H]1N1CCC[C@@H](Nc2cc(Cl)cc(C(F)(F)F)c2)C1=O` ?
## Result 23.8 µM

###

system: HS 578T breast; assay: NCI tumour cell line growth inhibition, 48 h; in the data active means GI50 below about 0.43 µM; inactive means the rest
API: response.call in active, inactive

Below are worked cases with known answers.
- COMPOUND: "Cc1cc(N2CCCCC2)nc(N(CCNc2ccnc3cc(Cl)ccc23)Cc2ccco2)n1"
  LABEL: "inactive"
- COMPOUND: "Nc1nc(/C=C\\c2ccc([N+](=O)[O-])o2)nc(N2CCN(c3ccccc3)CC2)n1"
  LABEL: "inactive"
- COMPOUND: "CCn1c(-c2nonc2N)nc2cncc(C(=O)N3CCNCC3)c21"
  LABEL: "inactive"
- COMPOUND: "CCCN(Cc1ccc(F)cc1)c1ccc(CO)c(Cl)c1"
  LABEL: "inactive"

## Task Lab log entry: CC12CCC=CC1CCC1C2CCC2(C)C(c3ccc(=O)oc3)CCC12O (stereo not given) — outcome as called in the assay?
## Result active

###

test system: NCI-H23 lung; test: NCI tumour cell line growth inhibition, 48 h
This listing pairs compounds with measured TGI.

Example compounds with recorded TGI:
- COMPOUND: "CC12CCC(=O)C=C1CCC1C2CCC2(C)C(C(=O)Cn3cnc4c(=S)nc[nH]c43)CCC12 (stereo unspecified)"
  TGI: "82.5 µM"
- COMPOUND: "COc1ccc(C(=O)/C=C/c2ccc(Cl)cc2)cc1S(=O)(=O)Nc1c(N)nc(SC)[nH]c1=O"
  TGI: "6.36 µM"
- COMPOUND: "Nc1ncnc2c1ccn2C1OC2COP(=O)(O)OC2C1O (stereo unspecified)"
  TGI: "9.37 µM"

## Task Reported TGI, compound `CCCCc1ccc(Nc2nc(Cl)c3c(ncn3COCCOC(C)=O)n2)cc1` : ____
## Result 35.6 µM

## Task Reported TGI, compound OCC1OC(n2ccc3c2ncn2ncnc32)C(O)C1O (stereo unspecified) : ____
## Result > 100 µM

## Task Reported TGI, compound Nc1cc(=O)[nH]c(SC2=NC(N)CC(O)C2)n1 (stereo unspecified) : ____
## Result > 100 µM

## Task Reported TGI, compound `CCc1ccc(NC(=O)Nc2c[nH]c3ccccc23)cc1` : ____
## Result > 54.1 µM

## Task Reported TGI, compound CC1CC2C(=O)NC(=O)C2c2[nH]c3ccccc3c21 (stereo unspecified) : ____
## Result > 100 µM

## Task Reported TGI, compound CCOC(=O)CCC(NC(=O)Cc1ccc(Nc2nc3ccccc3nc2-c2ccccc2)cc1)C(=O)OCC (stereo unspecified) : ____
## Result > 100 µM

## Task Reported TGI, compound O=C(O)[C@@H]1C2CC([C@@H]1C(=O)O)[C@H](N1C(=O)CCC1=O)[C@@H]2Br (stereo partly specified) : ____
## Result > 100 µM

## Task Reported TGI, compound `C/C(CN1C(=O)c2ccccc2C1=O)=N\NS(=O)(=O)c1ccc(Br)cc1` : ____
## Result > 100 µM

## Task Reported TGI, compound `Cc1nc2sc(CCl)nn2c(=O)c1Cl` : ____
## Result 33.3 µM

###

system: HCT-116 colon; test: NCI tumour cell line growth inhibition, 48 h
REPORTED PROPERTY: TGI

## Task Reported TGI, compound CCCC(O)[C@@H](O)c1ccc2c(c1O)C(=O)c1c(OC)cccc1C2=O (stereo partly drawn) : ____
## Result > 100 µM

## Task Reported TGI, compound `Cn1nc(Cc2ccc(Cl)cc2)n(N)c1=O` : ____
## Result > 100 µM

## Task Reported TGI, compound `CN(C)c1ccc(-c2c(C#N)c(N)[nH]c(=S)c2C#N)cc1` : ____
## Result > 100 µM

###

test system: SN12C renal; assay: NCI tumour cell line growth inhibition, 48 h
This listing pairs compounds with measured TGI.

Example compounds with recorded TGI:
- COMPOUND: "COc1ccc2c(c1)CCC1C2CCC2(C)C1CCC2(O)CNC(=O)CCCCC1CCSS1 (stereo not drawn)"
  REPORTED PROPERTY: "TGI"
  RESULT: "> 100 µM"
- COMPOUND: "Cc1cc(N2CCCCC2)nc(N(CCNc2ccnc3cc(Cl)ccc23)Cc2ccco2)n1"
  REPORTED PROPERTY: "TGI"
  RESULT: "3.56 µM"
- COMPOUND: "COC12C=CC(CC1)c1c(O)ccc(O)c12 (stereo not drawn)"
  REPORTED PROPERTY: "TGI"
  RESULT: "> 100 µM"
- COMPOUND: "C=C1C(=O)O[C@H]2C[C@@H](C)[C@@H]3CC(=O)OC[C@@]3(C)CC12 (stereo partly drawn)"
  REPORTED PROPERTY: "TGI"
  RESULT: "60.8 µM"
- COMPOUND: "CSc1nnc(CCSc2ccnc3c(C(F)(F)F)cccc23)o1"
  REPORTED PROPERTY: "TGI"
  RESULT: "> 100 µM"
- COMPOUND: "CC12CCC=CC1CCC1C2CCC2(C)C(c3ccc(=O)oc3)CCC12O (stereo not drawn)"
  REPORTED PROPERTY: "TGI"
  RESULT: "0.571 µM"

## Task Reported TGI, compound `COc1ccc(/C=C(\Cl)c2ccc(OC)c(OC)c2)cc1OC` : ____
## Result > 100 µM

## Task Reported TGI, compound `N#CSc1ncnc2nc[nH]c12` : ____
## Result > 100 µM

## Task Reported TGI, compound `CCOC(=O)c1c2c(n(CC(C)C)c1C)-c1nc[nH]c1C(=O)C2=O` : ____
## Result 26.2 µM

## Task Reported TGI, compound NC(=O)OCC(COc1ccc(Cl)cc1)OC(=O)c1ccccc1Cl (stereo not drawn) : ____
## Result 34 µM

## Task Reported TGI, compound OCC1OC(n2ccc3c2ncn2ncnc32)C(O)C1O (stereo not drawn) : ____
## Result > 100 µM

Value source: PubChem BioAssay (NCI)
